The reported measurements were obtained from patent US10519154B2.

Molecular target: human M2 receptor (Homo sapiens, UniProt P08172)
Sequence (P08172 whole entry): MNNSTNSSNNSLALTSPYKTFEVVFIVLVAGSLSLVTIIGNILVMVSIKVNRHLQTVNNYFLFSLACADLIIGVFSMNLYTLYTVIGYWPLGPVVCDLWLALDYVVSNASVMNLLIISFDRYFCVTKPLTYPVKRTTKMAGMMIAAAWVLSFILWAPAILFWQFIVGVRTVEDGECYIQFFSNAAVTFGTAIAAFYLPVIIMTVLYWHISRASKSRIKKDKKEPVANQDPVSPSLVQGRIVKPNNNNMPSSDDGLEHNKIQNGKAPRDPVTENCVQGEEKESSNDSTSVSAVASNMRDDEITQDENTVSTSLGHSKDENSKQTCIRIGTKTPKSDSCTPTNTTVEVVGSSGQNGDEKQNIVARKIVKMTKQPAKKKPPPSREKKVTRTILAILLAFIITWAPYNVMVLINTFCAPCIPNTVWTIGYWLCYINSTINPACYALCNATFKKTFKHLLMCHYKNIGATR
Assay: Functional M2-GIRK1/4 activation test: allosteric potency (EC50) and efficiency
Settings: read-out: Efficiency, boosting of the acetylcholine effect at EC20 acetylcholine concentration; CHO-DUKX-M2-GIRK cells
measured.parameter: Emax (%)

CC[C@@H](NC(=O)c1cn(-c2ncc(F)cc2F)c2nc(N3C[C@@H](O)[C@@H](O)C3)ccc2c1=O)C(F)(F)F :: 100
CC[C@H](NC(=O)c1cn(-c2ncc(F)cc2F)c2nc(N3CCCN(CCO)C3=O)ccc2c1=O)C(F)(F)F :: 100
O=C(N[C@H](C1CC1)C(F)(F)F)c1cn(-c2ncccc2F)c2nc(N3CC4CC4(O)C3)ccc2c1=O (mixture of isomers) :: 100
CCC(COC(F)(F)F)NC(=O)c1cn(-c2ncc(F)cc2F)c2nc(N3C[C@@H](C)NC3=O)ccc2c1=O (some centres unmarked) :: 95
CC(NC(=O)c1cn(-c2ncc(F)cc2F)c2nc(N3CCNC3=O)ccc2c1=O)C(F)(F)C(F)(F)F (racemic) [Example 161] :: 100
CC(C)(C)[C@H](NC(=O)c1cn(-c2ncc(F)cc2F)c2nc(N3C[C@@H](O)CC3=O)ccc2c1=O)C(F)(F)F :: 100
O=C(NC(C1CC1)C(F)(F)F)c1cn(-c2ncc(F)cc2F)c2nc(N3CC[C@@H](O)C3=O)ccc2c1=O (some centres unmarked) :: 94.5
CC1C(O)C2(CC2)C(=O)N1c1ccc2c(=O)c(C(=O)N[C@H](C3CC3)C(F)(F)F)cn(-c3ncc(F)cc3F)c2n1 (some centres unmarked) :: 96.5
CC[C@H](NC(=O)c1cn(-c2ncc(F)cc2F)c2nc(N3CC(O)(C(F)(F)F)C3)ccc2c1=O)C(F)(F)F :: 95.5
O=C(NC(c1ccccc1Cl)C(F)(F)F)c1cn(-c2ncc(F)cc2F)c2nc(N3C[C@@H](O)CC3=O)ccc2c1=O (single isomer, unassigned) [Example 6] :: 95
CCC(NC(=O)c1cn(-c2ncc(F)cc2F)c2nc(N3C[C@@H](O)CC3=O)ccc2c1=O)C(F)(F)C(F)(F)F (mixture of isomers) [Example 92] :: 100
O=C(NC1(C(F)(F)F)CCC1)c1cn(-c2ncc(F)cc2F)c2nc(N3C[C@@H](O)[C@H](O)C3)ccc2c1=O :: 100
O=C(NC(C1CC1)C(F)(F)F)c1cn(-c2ncc(F)cc2F)c2nc(N3C[C@@H](O)[C@H](O)C3)ccc2c1=O (some centres unmarked) :: 100
O=C(N[C@H](C1CC1)C(F)(F)F)c1cn(-c2ncccc2Cl)c2nc(N3CC4CC4(O)C3)ccc2c1=O (mixture of isomers) :: 94.7
O=C(NC(C(F)(F)F)C(F)(F)F)c1cn(-c2ncc(F)cc2F)c2nc(N3C[C@H](O)[C@@H](O)C3)ccc2c1=O :: 100
O=C(NC1CCC1)c1cn(-c2ncc(F)cc2F)c2nc(N3CCNC3=O)ccc2c1=O :: 96
O=C(N[C@@H](C1CC1)C(F)(F)F)c1cn(-c2ncc(F)cc2F)c2nc(N3C[C@@H](O)[C@H](O)C3)ccc2c1=O :: 100
O=C(N[C@H](C1CC1)C(F)(F)F)c1cn(-c2ncccc2F)c2nc(N3CC4C[C@@]4(O)C3)ccc2c1=O (single isomer, unassigned) :: 97.5
CC(NC(=O)c1cn(-c2ncc(F)cc2F)c2nc(N3C[C@@H](O)[C@H](O)C3)ccc2c1=O)C(F)(F)C(F)(F)F (mixture of isomers) [Example 88] :: 99.5
CC(NC(=O)c1cn(-c2ncc(F)cc2F)c2nc(N3CCC(CO)(CO)CC3)ccc2c1=O)C(F)(F)C(F)(F)F (single isomer, unassigned) :: 100
O=C(Nc1c(Cl)cccc1Cl)c1cn(-c2ncc(F)cc2F)c2nc(N3C[C@@H](O)[C@@H](O)C3)ccc2c1=O :: 92.5
CC[C@@H](NC(=O)c1cn(-c2ncc(F)cc2F)c2nc(N3CCC(C)(O)C3)ccc2c1=O)C(F)(F)F (mixture of isomers) :: 97
CC(NC(=O)c1cn(-c2ncc(F)cc2F)c2nc(N3CCCC[C@@H]3CO)ccc2c1=O)C(F)(F)C(F)(F)F (single isomer, unassigned) :: 100
O=C(N[C@H](C1CC1)C(F)(F)F)c1cn(-c2ncc(F)cc2F)c2nc(N3CC4CC4(O)C3)ccc2c1=O (mixture of isomers) [Example 37] :: 99
O=C(NC(c1ccc(F)cc1)C(F)(F)F)c1cn(-c2ncc(F)cc2F)c2nc(N3C[C@@H](O)CC3=O)ccc2c1=O (mixture of isomers) [Example 11] :: 99.5
CC[C@@H](NC(=O)c1cn(-c2ncccc2Cl)c2nc(N3CC4CC4(O)C3)ccc2c1=O)C(F)(F)F (mixture of isomers) :: 89
